Numbers sourced from PubChem BioAssay.

Method Description: growth inhibitors of H69AR lung tumor, primary screen, human, duplicate replicates (AID 580);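 note: 100% = mean luminescence of untreated wells and 0% = no signal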
Test Conditions: H69AR lung tumor cells viability, ATP luminescence, 72 h; at 10 µM; hits give low values
Measured Attribute: viability (%)
The figure you give is taken to be in %; do not add the unit.

Here is how some compounds turned out for viability.
Data request, read-out viability, for N#CC1=C(SCC(=O)c2cc3ccccc3oc2=O)NC(=O)C(C#N)C12CCCC2 (stereo unspecified)
86.5

Any idea what its viability is? The compound is COC(=O)C(C)C1Sc2ccccc2NC1=O (stereo unspecified)
93.9

Given the entry O=C1CC(N2CCOCC2)C(=O)N1c1ccc2c(c1)OCO2 (stereo unspecified) , report its measured viability.
104

Which viability value belongs to CC(=O)O[C@]1(C(C)=O)CC[C@H]2[C@@H]3C=C(C)C4=CC(=O)CC[C@]4(C)[C@H]3CC[C@@]21C ?
87.6

Name the reported viability value associated with the compound CCOC(=O)CNC(=O)CSc1nc(N)cc(N)n1
96.7

Query: viability; subject: CCCCC(=O)NCCc1cc2ccc(OC)cc2[nH]c1=O
103

Fill in the blank: the reported viability of COc1ccc2cc(C#N)c(NC(C)C)nc2c1 is ____.
75.4

viability for O=C1CCC(=O)N1OCCCOc1ccc(Br)cc1Cl ?
93.5

Continuing:
I am curious: what viability value has been reported for CCN=C1SC(CC(=O)Nc2ccccc2)C(=O)N1CC (stereo unspecified) ?
105

GET /values?readout=viability&item= Cc1coc2cc3oc(=O)c4c(c3cc12)CCC4
104

Need viability, item O=C(CCCN1CC=C(n2c(=O)[nH]c3ccccc32)CC1)c1ccc(F)cc1
86.2
